MEASUREMENT NAME: melting point

{"COMPOUND": "CCc1nc(N)nc(Cl)c1C", "DATA VALUE": "138 to 140 °C"}
{"COMPOUND": "OC1C2CCC1C1C=CC2O1 (centres undefined)", "DATA VALUE": "121 to 123 °C"}

Req: // query melting point value for entry CC(=O)N1CC(C)=CC1=O
Resp: 89 to 90 °C

Req: Can you handle c1nnc(SCCSc2nnc[nH]2)[nH]1 next?
Resp: 197 to 200 °C

* * *

MEASUREMENT NAME: melting point (°C)

{"COMPOUND": "CC(=Nc1ccc(N=Nc2ccccc2)cc1)c1c(O)c2ccccc2n(-c2ccccc2)c1=O", "melting point [°C]": 191}
{"COMPOUND": "CNC(=O)C(C)SCCSP(=O)(OC)OC (stereo not given)", "melting point [°C]": 43}
{"COMPOUND": "c1ccc2c(c1)NCCN2", "melting point [°C]": 99}
{"COMPOUND": "Cc1cc(C)c(N)c(Br)c1", "melting point [°C]": 44}
{"COMPOUND": "O=C(N[C@@H](Cc1cccc(F)c1)C(=O)O)OCC1c2ccccc2-c2ccccc21", "melting point [°C]": 156}

(A) O=Cc1ccc(O)c(O)c1O
(B) C1=CCCC=CCC1
(C) Cc1ccccc1CC(=O)O
Req: Sort these compounds on melting point so the largest reading comes first. Response format: the labels, sorted as the prompt asks.
Resp: A, C, B

* * *

Overview of reported melting point across a group of molecules:
Provide the reading as a plain figure in °C.

{"MOLECULE": "COP(=O)(OC)C(O)C(Cl)(Cl)Cl (stereo not given)", "MEASUREMENT NAME": "melting point", "DATA VALUE": 80}

Please look at the following molecule next.
Req: // query melting point value for entry N#Cc1c(F)c(F)c(C#N)c(F)c1F
Resp: 198

* * *

Overview of reported melting point across a group of compounds:

{"COMPOUND": "OCc1csc(-c2cccnc2)n1", "melting point": "120 to 121 °C"}
{"COMPOUND": "O=C(CCl)NNC(=O)c1ccccc1", "melting point": "163 to 166 °C"}
{"COMPOUND": "Cc1cc2cc(N)ccc2[nH]1", "melting point": "152 to 155 °C"}

Req: // query melting point value for entry Nc1ccc(OCCN2CCOCC2)cc1
Resp: 53 to 57 °C

Req: Can you handle COc1ccc(C(=O)N=C=S)cc1 next?
Resp: 23 to 25 °C

Req: Can you handle COc1cc(C)c2c(=O)c(-c3ccccc3)coc2c1 next?
Resp: 116 to 120 °C

Req: Can you handle Nc1cccc(Cn2ccnc2)c1 next?
Resp: 72 to 74 °C

Req: Can you handle CC(C)(C)OC(=O)N[C@@H](Cc1ccccc1F)C(=O)O next?
Resp: 92 to 96 °C

Req: Can you handle CCOC(=O)c1c(SC)nn2c(=O)n(Nc3ccccc3)cnc12 next?
Resp: 118 to 122 °C

Req: Can you handle Brc1ccc(Oc2ccccc2Br)cc1 next?
Resp: < 20 °C

Req: Can you handle CCOC(=O)C(C#N)=Cc1ccc(-c2ccc(C)cc2)o1 next?
Resp: 123 to 124 °C

Req: Can you handle COc1ccc2[nH]cc(CC(N)C(=O)O)c2c1 (racemic) next?
Resp: 258 to 261 °C

Req: Can you handle c1ccc(C/C(=N\Nc2ccccc2)c2ccc3ccccc3c2)cc1 next?
Resp: 165 to 167 °C

Req: Can you handle CC(C)CN1C(=O)N2CCc3ccccc3C2(c2ccc(Cl)cc2)C1=O (configuration not stated) next?
Resp: 120 to 121 °C

Req: Can you handle Cc1cncc(N2CCC(C(=O)Oc3c(F)c(F)c(F)c(F)c3F)CC2)n1 next?
Resp: 94 to 95 °C

Req: Can you handle CCOC(=O)c1c(-c2ccccc2)csc1NC(=O)c1ccccc1Cl next?
Resp: 131 to 132 °C

Req: Can you handle O=C(Cl)c1ccccc1[N+](=O)[O-] next?
Resp: 17 to 20 °C

Req: Can you handle CC(=O)Nc1cc(N)ccc1C next?
Resp: 141 to 142 °C

Req: Can you handle O=C(Oc1c(F)c(F)c(F)c(F)c1F)c1ccnc(N2CCSCC2)c1 next?
Resp: 99 to 100 °C

Req: Can you handle Clc1ccc(-c2csc3nc4ccccc4n23)cc1 next?
Resp: 200 to 203 °C

Req: Can you handle Nc1ncnc2[nH]nnc12 next?
Resp: > 300 °C

Req: Can you handle C1OC2COCOC2C2OCOCC2O1 (configuration not stated) next?
Resp: 232 to 233 °C

* * *

Overview of reported melting point across a group of compounds:

{"COMPOUND": "CC(=O)OC1CCC2(C)C(CCC3C4CC=C(C#Cc5ccccc5)C4(C)CCC32)C1 (stereo not drawn)", "melting point": "152 to 153 °C"}

Req: // query melting point value for entry O=C(C=Cc1cccc([N+](=O)[O-])c1)c1ccc(F)cc1
Resp: 166 to 167 °C

Req: Can you handle c1ccc(-c2nsc(N3CCCNCC3)n2)cc1 next?
Resp: 82 to 83 °C

Req: Can you handle CCOC(=O)c1cc(-c2ccc(C)cc2)oc1C next?
Resp: 82 to 83 °C

Req: Can you handle CS(=O)(=O)c1ccc2nc(N)sc2c1 next?
Resp: 222 to 223 °C

Req: Can you handle CCOC(=O)Nc1nc(N)c(C(N)=O)s1 next?
Resp: 168 to 170 °C

Req: Can you handle O=C(O)c1cnc2n(c1=O)CCS2 next?
Resp: 237 to 238 °C

* * *

Overview of reported melting point across a group of molecules:

// known answers, use as guide
{"MOL": "NNc1ccc(I)cc1", "melting point": "101 to 102 °C"}
{"MOL": "Cc1nn(Cc2cccc(C(=O)O)c2)c(C)c1Br", "melting point": "224 to 226 °C"}
{"MOL": "CC(C)NC(=O)C(C)C", "melting point": "103 to 104 °C"}
{"MOL": "CC(C)(C)S(=O)(=O)CC(N)=S", "melting point": "184 to 186 °C"}
{"MOL": "CCOC(=O)c1cc2cc(Br)ccc2o1", "melting point": "69 to 72 °C"}
{"MOL": "O=C(O)c1cccnc1Oc1ccc2c(c1)OCO2", "melting point": "181 to 183 °C"}
{"MOL": "COC(=O)c1cccc(Cn2nc(C)c(Br)c2C)c1", "melting point": "105 to 107 °C"}
{"MOL": "C1CCC(P(C2CCCCC2)C2CCCCC2)CC1", "melting point": "77 to 83 °C"}

Req: // query melting point value for entry FC(F)(F)c1cc(Cl)cc(Cl)c1
Resp: -13 to -12 °C

Req: Can you handle O=Cc1ccc2c(c1)OCCO2 next?
Resp: 52 to 53 °C

* * *

Overview of reported melting point across a group of molecules:

// known answers, use as guide
{"MOLECULE": "O[C@@H]1CC2=C(CCCC2)C[C@@H]1O", "melting point": "120 to 121 °C"}
{"MOLECULE": "COc1cc2c(cc1OC)C(CO)NCC2 (stereo not drawn)", "melting point": "135 to 139 °C"}

Please look at the following molecule next.
Req: // query melting point value for entry COC(=O)C1=C(C)NC(C)=C([N+](=O)[O-])C1c1ccccc1C(F)(F)F (stereo not drawn)
Resp: 166 to 172 °C

* * *

MEASUREMENT NAME: melting point (°C)

// known answers, use as guide
{"MOLECULE": "COc1ccc(/C=C(\\C#N)c2nc(-c3ccco3)cs2)cc1", "melting point [°C]": 109}
{"MOLECULE": "O=C(Nc1cccc(Br)c1)c1cncc(Cl)n1", "melting point [°C]": 100}
{"MOLECULE": "c1ccc(CNc2ccccn2)cc1", "melting point [°C]": 95}
{"MOLECULE": "CCCCCCCCN1CCCC1=O", "melting point [°C]": -25}
{"MOLECULE": "c1ccc(-c2nccnc2-c2ccccc2)cc1", "melting point [°C]": 121}

(I) CCCCN(C)C(=O)Nc1ccc(Cl)c(Cl)c1
(II) CC12CCC(CC(Br)c3ccccc3)(OC1=O)C2(C)C (centres undefined)
(III) FC1(F)C(F)(F)C(F)(F)C2(F)C(F)(C1(F)F)C(F)(F)C(F)(F)C1(F)C(F)(F)C(F)(F)C(F)(F)C(F)(F)C12F (centres undefined)
Req: Exam item: list the entries in increasing order of melting point. Response format: the labels, sorted as the prompt asks.
Resp: III, I, II

* * *

MEASUREMENT NAME: melting point (°C)

// known answers, use as guide
{"MOLECULE": "O=C(O)Cc1ccc2ccccc2c1", "melting point / °C": 142}
{"MOLECULE": "COC(=O)Nc1nc2cc(C(=O)C3CC3)ccc2[nH]1", "melting point / °C": 250}
{"MOLECULE": "O=C(O)c1c(F)ccc(F)c1O", "melting point / °C": 152}
{"MOLECULE": "O=C(O)C(=S)Cc1cccc(CC(=S)C(=O)O)c1", "melting point / °C": 85}

(a) Ic1ccc(N2CCOCC2)nc1
(b) COC(=O)c1c(C)cc(OC(=O)c2c(C)cc(O)c(C=O)c2O)c(C)c1O
(c) Cc1cccc2c1Cc1ccccc1-2
(d) CCC(=O)c1cccc(C(F)(F)F)c1
Req: Exam item: list the entries in increasing order of melting point. Response format: the labels, sorted as the prompt asks.
Resp: d, c, a, b
